Entries and their measured TGI follow.
- Test system: CAKI-1 renal
- methodNotes: NCI tumour cell line growth inhibition, 48 h

Solved cases below.
compound | TGI
O=C(O)CCCCC(CCSCc1ccccc1)SCc1ccccc1 (stereo not drawn) | > 100 µM
CC1OC(O[C@H]2C[C@@H](O)[C@]3(CO)[C@H]4[C@H](O)C[C@]5(C)[C@@H](C6=CC(=O)OC6)CC[C@]5(O)[C@@H]4CC[C@]3(O)C2)C(O)C(O)C1O (stereo partly drawn) | 33.9 µM
O=C(O)CSc1nnc(COc2ccc(Cl)cc2)n1-c1ccccc1 | > 100 µM
O=C1c2c(c3c4ccccc4n(CCCCCCBr)c3c3[nH]c4ccccc4c23)C(=O)N1O | 9.5 µM
Cc1ccc(-c2c3c([nH]c(=O)c2C#N)-c2cc(F)ccc2OC3)cc1 | > 100 µM
CC(C)(C)c1ccc2c(c1)CNCCNCc1cc(C(C)(C)C)ccc1OCC1(CO2)COc2ccc(C(C)(C)C)cc2CNCCNCc2cc(C(C)(C)C)ccc2OC1 | 2.74 µM
C=C(C)C12CC(COC(=O)c3ccccc3)C34OC5(OC1C3C1OC1(CO)C(O)C1(O)C(OC(=O)c3ccccc3)C(C)C(C(C)CCCCCCC5O)C14)O2 (stereo not drawn) | > 100 µM

Let us move to another entry and its TGI.
Field request: TGI | item: O=C1CCC[C@@H]2NC[C@@H](c3ccc4c(c3)OCO4)[C@H]12
> 25 µM

Provenance of the data: PubChem BioAssay (NCI)
